Experiment: Colorimetric alkylation rate constant assay with TNB^2− as non-specific thiol
Assay type: physicochemical
Conditions: Replicate 2, 2349 sec, [B]0=250; in µM
remaining [B] values for the molecules below.

{"columns": ["molecule", "remaining [B]"],
 "data": [
  ["O=C(CCl)Nc1ccc(F)cc1", 241.734],
  ["O=C(CCl)Nc1ccccc1C(=O)O", 244.739],
  ["C=CS(=O)(=O)Nc1cc2cc(C(=O)CCC(=O)O)sc2cc1OC [Compound E1]", 243.649],
  ["O=C(CCl)N1CCOCC1", 235.377],
  ["O=C(CCl)Nc1ccccc1", 242.137],
  ["COc1cc2sc(C(=O)CCC(=O)O)cc2cc1NC(=O)CCl [Compound E2]", 240.858]
]}
